Assay: Geometric mean of Cmax of saquinavir mesylate following oral repeat dosing of 1000 mg Invirase Film-coated tablet in healthy human
Format: ADME, organism-based
Settings: both, plasma
Readout Label: Cmax (ng/mL)
// units = ng/mL; emit number, no label

Query: Can you share its Cmax? I mean this compound: CC(C)(C)NC(=O)[C@@H]1C[C@@H]2CCCC[C@@H]2CN1C[C@@H](O)[C@H](Cc1ccccc1)NC(=O)[C@H](CC(N)=O)NC(=O)c1ccc2ccccc2n1
Result: 332

====

Experiment: Arithmetic mean of Cmax of saquinavir mesylate following oral repeat dosing of 1000 mg Invirase Hard Gel Capsules capsules in healthy human
Assay type: ADME, organism-based
Conditions: both, plasma
Readout Label: Cmax (ng/mL)
// units = ng/mL; emit number, no label

Query: Can you share its Cmax? I mean this molecule: CC(C)(C)NC(=O)[C@@H]1C[C@@H]2CCCC[C@@H]2CN1C[C@@H](O)[C@H](Cc1ccccc1)NC(=O)[C@H](CC(N)=O)NC(=O)c1ccc2ccccc2n1
Result: 348
